- ASSAY SYSTEM: MAGL (Homo sapiens)
- TEST PROTOCOL: In vitro competitive substrate hydrolysis enzyme activity assay (pNPA), HEK293 cell lysates
- Assay type: biochemical
- Parameters: expressed in transfected cells; host or cells: HEK293
- REPORTED CONDITIONS: HEK293 lysate
Each entry belongs to exactly one class, chosen by where its IC50 falls: 1 (below 0.009 µM), 2 (0.009 µM to below 0.07 µM), 3 (0.07 µM or more)

1) O=C(OC(C(F)(F)F)C(F)(F)F)N1CCC2(CC1)CC2C(=O)N1CCc2ncncc2C1 (single isomer, unassigned) [Example 61] = 3

Data request: Form: Item = O=C(Nc1cncnc1)C1CC12CCN(C(=O)OC(C(F)(F)F)C(F)(F)F)CC2 (single isomer, unassigned) [Example 96] ; Class = ?
Data returned: 2

Data request: Form: Item = O=C(Nc1cccnn1)[C@@H]1CC12CCN(C(=O)OC(C(F)(F)F)C(F)(F)F)CC2 [Example 5] ; Class = ?
Data returned: 3

Data request: Form: Item = O=C(Nc1cncc(F)c1)C1CC12CCN(C(=O)OC(C(F)(F)F)C(F)(F)F)CC2 (single isomer, unassigned) [Example 40] ; Class = ?
Data returned: 1

Data request: Form: Item = O=C(Nc1cncc(Cl)c1)C1CC12CCN(C(=O)OC(C(F)(F)F)C(F)(F)F)CC2 (single isomer, unassigned) [Example 67] ; Class = ?
Data returned: 2

Data request: Form: Item = O=C(Nc1ccnc(C(F)(F)F)n1)[C@@H]1CC12CCN(C(=O)OC(C(F)(F)F)C(F)(F)F)CC2 (single isomer, unassigned) [Example 18] ; Class = ?
Data returned: 2

Data request: Form: Item = O=C(Nc1cnc(C(F)(F)F)nc1)C1CC12CCN(C(=O)OC(C(F)(F)F)C(F)(F)F)CC2 (single isomer, unassigned) [Example 100] ; Class = ?
Data returned: 3

Data request: Form: Item = O=C(NC(=O)C1CC12CCN(C(=O)OC(C(F)(F)F)C(F)(F)F)CC2)C1CCCCC1 (single isomer, unassigned) [Example 91] ; Class = ?
Data returned: 1

Data request: Form: Item = O=C(Nc1cccnc1)[C@H]1CC12CCN(C(=O)OC(C(F)(F)F)C(F)(F)F)CC2 (single isomer, unassigned) [Example 2] ; Class = ?
Data returned: 1

Data request: Form: Item = O=C(OC(C(F)(F)F)C(F)(F)F)N1CCC2(CC1)CC2C(=O)N1CCc2ncncc2C1 (single isomer, unassigned) [Example 60] ; Class = ?
Data returned: 3

Data request: Form: Item = O=C(NCc1cccc(C(F)(F)F)n1)C1CC12CCN(C(=O)OC(C(F)(F)F)C(F)(F)F)CC2 (single isomer, unassigned) [Example 76] ; Class = ?
Data returned: 1

* * *

- ASSAY SYSTEM: MAGL (Rattus norvegicus, UniProt Q8R431)
- Sequence (Q8R431 whole entry): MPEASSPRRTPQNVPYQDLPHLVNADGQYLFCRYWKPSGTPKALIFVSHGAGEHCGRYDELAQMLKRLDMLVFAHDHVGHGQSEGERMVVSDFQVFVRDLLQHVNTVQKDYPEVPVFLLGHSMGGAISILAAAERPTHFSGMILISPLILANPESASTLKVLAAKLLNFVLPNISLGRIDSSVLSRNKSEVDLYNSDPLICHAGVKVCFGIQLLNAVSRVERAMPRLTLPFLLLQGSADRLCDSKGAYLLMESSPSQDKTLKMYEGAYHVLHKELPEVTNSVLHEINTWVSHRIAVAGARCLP
- TEST PROTOCOL: MAGL IC50 values marked (rat) in Table 1
- Type: biochemical
- REPORTED CONDITIONS: cell marked (rat) in the human PC3 column
Here, each record is paired with measured IC50 data.
Provide only the numeric value, understood in µM.

1) N#Cc1ccc(NC(=O)C2CC23CCN(C(=O)OC(C(F)(F)F)C(F)(F)F)CC3)cn1 (racemic) = 0.0033

Note: attention shifts to another entry.
Data request: Entry O=C(O)COc1ccc(NC(=O)C2CC23CCN(C(=O)OC(C(F)(F)F)C(F)(F)F)CC3)cn1 (single isomer, unassigned) has what IC50?
Data returned: 0.39

* * *

- ASSAY SYSTEM: MAGL (Homo sapiens)
- TEST PROTOCOL: In vitro competitive activity-based protein profiling, PC3 human cell membrane proteomes
- Type: biochemical
- Set-up: endogenous in cells; host or cells: PC3 human cells (membrane proteome)
- REPORTED CONDITIONS: human PC3 membrane proteome
OBSERVATION TYPE: log10 of IC50 (log10 of the value in µM)
In plain terms, each number is the log10 of measured IC50 in µM.

Study these solved cases before continuing.
1. CC(C)Oc1ccc(NC(=O)C2CC23CCN(C(=O)OC(C(F)(F)F)C(F)(F)F)CC3)cn1 (single isomer, unassigned) [Example 165] = -2.85
2. O=C(Nc1ccon1)C1CC12CCN(C(=O)OC(C(F)(F)F)C(F)(F)F)CC2 (single isomer, unassigned) [Example 177] = -0.54

Data request: Entry O=C(OC(C(F)(F)F)C(F)(F)F)N1CCC2(CC1)CC2C(=O)N1CCOCC1 (single isomer, unassigned) [Example 121] has what log10 of IC50?
Data returned: -0.38

Data request: Entry O=C(NCc1cncnc1)C1CC12CCN(C(=O)OC(C(F)(F)F)C(F)(F)F)CC2 (single isomer, unassigned) [Example 154] has what log10 of IC50?
Data returned: -0.07

Data request: Entry CN(C(=O)C1CC12CCN(C(=O)OC(C(F)(F)F)C(F)(F)F)CC2)c1cccnc1 (single isomer, unassigned) has what log10 of IC50?
Data returned: -1.40

Data request: Entry Cc1ccc(NC(=O)C2CC23CCN(C(=O)OC(C(F)(F)F)C(F)(F)F)CC3)cn1 (single isomer, unassigned) has what log10 of IC50?
Data returned: -3.06

* * *

- ASSAY SYSTEM: MAGL (Homo sapiens, UniProt Q99685)
- Sequence (Q99685 whole entry): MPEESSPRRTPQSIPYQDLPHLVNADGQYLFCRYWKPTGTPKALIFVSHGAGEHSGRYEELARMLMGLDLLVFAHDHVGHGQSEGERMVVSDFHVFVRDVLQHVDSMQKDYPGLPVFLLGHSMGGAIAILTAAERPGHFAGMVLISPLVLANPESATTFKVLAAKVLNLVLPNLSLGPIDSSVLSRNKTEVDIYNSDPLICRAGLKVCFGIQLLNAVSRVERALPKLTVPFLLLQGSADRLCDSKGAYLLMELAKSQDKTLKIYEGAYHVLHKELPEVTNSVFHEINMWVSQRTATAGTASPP
- TEST PROTOCOL: In vitro competitive substrate hydrolysis enzyme activity assay (pNPA), HEK293 cell lysates
- Assay type: biochemical
- Parameters: expressed in transfected cells; host or cells: HEK293
- REPORTED CONDITIONS: HEK293 lysate
OBSERVATION TYPE: IC50 (µM)
Provide only the numeric value, understood in µM.

Study these solved cases before continuing.
1) O=C(Nc1cnccn1)C1CC12CCN(C(=O)OC(C(F)(F)F)C(F)(F)F)CC2 (single isomer, unassigned) [Example 55] = 0.028
2) O=C(NC(=O)C1CC12CCN(C(=O)OC(C(F)(F)F)C(F)(F)F)CC2)c1ccccc1 (single isomer, unassigned) [Example 93] = 0.00284
3) O=C(OC(C(F)(F)F)C(F)(F)F)N1CCC2(CC1)CC2C(=O)N1CCc2cncnc2C1 (racemic) [Example 187] = 0.143
4) O=C(NC(=O)C1CC12CCN(C(=O)OC(C(F)(F)F)C(F)(F)F)CC2)C1CCCCC1 (single isomer, unassigned) [Example 90] = 0.00579
5) O=C(Nc1ccnc(C(F)(F)F)n1)[C@H]1CC12CCN(C(=O)OC(C(F)(F)F)C(F)(F)F)CC2 (single isomer, unassigned) [Example 17] = 0.00421

Data request: Entry O=C(Nc1ccc(C(F)(F)F)nc1)C1CC12CCN(C(=O)OC(C(F)(F)F)C(F)(F)F)CC2 (single isomer, unassigned) [Example 78] has what IC50?
Data returned: 0.00299

* * *

- ASSAY SYSTEM: UniProt:Q99685
- TEST PROTOCOL: In vitro competitive substrate hydrolysis enzyme activity assay (pNPA), HEK293 cell lysates
- Format: biochemical
- Design: expressed in transfected cells; host or cells: HEK293
- REPORTED CONDITIONS: HEK293 lysate
- Experimental: HEK293 cell lysates expressing recombinant human MAGL enzyme and 4-nitrophenyl acetate (pNPA) substrate were diluted separately in 50 mM HEPES (pH 7.0) containing 200 mM KCl and 1 mM EDTA. […] After 30 min, 2×pNPA substrate (50 μL, 2.5 mM) was added and the rate of substrate turnover was monitored by measuring the increase in absorbance at wavelength 405 nm for 20 minutes at 25° C. using a Biotek Neo2 plate reader. […]
Here, each record is paired with measured IC50 data.
Provide only the numeric value, understood in µM.

Study these solved cases before continuing.
1) O=C(OC(C(F)(F)F)C(F)(F)F)N1CCC2(CC1)CC2C(=O)N1CCn2c(nnc2C2CC2)C1 (racemic) = 0.862
2) O=C(OC(C(F)(F)F)C(F)(F)F)N1CCC2(CC1)CC2C(=O)N1CCn2ccnc2C1 (racemic) = 0.168
3) O=C(OC(C(F)(F)F)C(F)(F)F)N1CCC2(CC1)CC2C(=O)N1CCc2nc(C3CC3)ncc2C1 (single isomer, unassigned) [Example 64] = 0.103
4) O=C(Nc1cncc(Cl)c1)C1CC12CCN(C(=O)OC(C(F)(F)F)C(F)(F)F)CC2 (single isomer, unassigned) [Example 66] = 0.00102

Note: attention shifts to another entry.
Data request: Entry O=C(Nc1cccnc1C(F)(F)F)C1CC12CCN(C(=O)OC(C(F)(F)F)C(F)(F)F)CC2 (single isomer, unassigned) [Example 85] has what IC50?
Data returned: 0.167

* * *

- ASSAY SYSTEM: MAGL (Homo sapiens, UniProt Q99685)
- TEST PROTOCOL: In vitro competitive activity-based protein profiling, PC3 human cell membrane proteomes
- Type: biochemical
- Set-up: endogenous in cells; host or cells: PC3 human cells (membrane proteome)
- REPORTED CONDITIONS: human PC3 membrane proteome
OBSERVATION TYPE: log10(IC50) (log10 of the value in µM)
In plain terms, each number is the log10 of measured IC50 in µM.

Data request: Entry CC(=O)Nc1ccc(NC(=O)C2CC23CCN(C(=O)OC(C(F)(F)F)C(F)(F)F)CC3)cn1 (single isomer, unassigned) [Example 171] has what log10(IC50)?
Data returned: -2.60

Data request: Entry COc1ccc(NC(=O)[C@H]2CC23CCN(C(=O)OC(C(F)(F)F)C(F)(F)F)CC3)cn1 (single isomer, unassigned) has what log10(IC50)?
Data returned: -2.96

Data request: Entry NC(=O)c1ccc(NC(=O)[C@@H]2CC23CCN(C(=O)OC(C(F)(F)F)C(F)(F)F)CC3)cn1 (single isomer, unassigned) has what log10(IC50)?
Data returned: -0.66

Data request: Entry O=C(Nc1ccccc1)[C@@H]1CC12CCN(C(=O)OC(C(F)(F)F)C(F)(F)F)CC2 (single isomer, unassigned) has what log10(IC50)?
Data returned: -0.89

Data request: Entry O=C(Nc1nccs1)C1CC12CCN(C(=O)OC(C(F)(F)F)C(F)(F)F)CC2 (single isomer, unassigned) [Example 138] has what log10(IC50)?
Data returned: -3.00

Data request: Entry O=C(NCc1cccnn1)C1CC12CCN(C(=O)OC(C(F)(F)F)C(F)(F)F)CC2 (single isomer, unassigned) [Example 156] has what log10(IC50)?
Data returned: -0.35

Data request: Entry O=C(Nc1ccc(C2CC2)nc1)[C@H]1CC12CCN(C(=O)OC(C(F)(F)F)C(F)(F)F)CC2 (single isomer, unassigned) has what log10(IC50)?
Data returned: -3.00

Data request: Entry O=C(Nc1cccc(F)c1)C1CC12CCN(C(=O)OC(C(F)(F)F)C(F)(F)F)CC2 (single isomer, unassigned) [Example 147] has what log10(IC50)?
Data returned: -2.74

Data request: Entry CNC(=O)c1ccc(NC(=O)C2CC23CCN(C(=O)OC(C(F)(F)F)C(F)(F)F)CC3)cn1 (single isomer, unassigned) [Example 33] has what log10(IC50)?
Data returned: -2.66

Data request: Entry CC1(NC(=O)C2CC23CCN(C(=O)OC(C(F)(F)F)C(F)(F)F)CC3)CCOCC1 (single isomer, unassigned) [Example 132] has what log10(IC50)?
Data returned: -1.57

Data request: Entry Cc1ncc(NC(=O)C2CC23CCN(C(=O)OC(C(F)(F)F)C(F)(F)F)CC3)cn1 (single isomer, unassigned) [Example 102] has what log10(IC50)?
Data returned: -0.82

Data request: Entry O=C(NC(=O)C1CC12CCN(C(=O)OC(C(F)(F)F)C(F)(F)F)CC2)C1CCOCC1 (single isomer, unassigned) [Example 26] has what log10(IC50)?
Data returned: -1.80
